Kindly state Emax at 24 h, 10 µM for each of the entries shown.
# TARGET_OF_ASSAY: PPARgamma (Homo sapiens)
# Sequence (P37231 whole entry, the tested form may be a part): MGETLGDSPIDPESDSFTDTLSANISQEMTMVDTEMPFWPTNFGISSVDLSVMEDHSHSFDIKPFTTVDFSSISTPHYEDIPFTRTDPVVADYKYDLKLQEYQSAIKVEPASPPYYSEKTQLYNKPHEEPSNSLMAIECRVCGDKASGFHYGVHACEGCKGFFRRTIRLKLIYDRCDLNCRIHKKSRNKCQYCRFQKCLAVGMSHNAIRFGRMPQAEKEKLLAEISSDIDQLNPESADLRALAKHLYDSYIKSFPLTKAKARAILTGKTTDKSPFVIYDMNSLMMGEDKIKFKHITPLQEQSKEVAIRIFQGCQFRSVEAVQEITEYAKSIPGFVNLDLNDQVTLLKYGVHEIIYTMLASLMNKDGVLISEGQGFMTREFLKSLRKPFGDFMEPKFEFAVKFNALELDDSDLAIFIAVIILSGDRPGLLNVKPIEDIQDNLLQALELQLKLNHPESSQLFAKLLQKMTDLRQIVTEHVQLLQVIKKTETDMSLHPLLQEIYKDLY
# ASSAY_SUMMARY: Agonist activity at Gal4-fused human PPARgamma expressed in COS7 cells assessed as receptor transactivation at 10 uM measured after 24 hrs by luciferase/beta-galactosidase reporter gene assay relative to rosiglitazone
# Assay type: cell-based
# RUN_PARAMETERS: COS7 cells expressing Gal4-fused human PPARgamma, read-out: max activation
Please state the figure in %; there is no need to write the unit.

Exercise: What does the data say about its Emax at 24 h, 10 µM? Entry: C/C(=C\CC[C@]1(C)CCc2cc(O)cc(C)c2O1)CC/C=C(\C)C(=O)O
Solution: 95

Exercise: Request: CCOC(=O)CC/C(C)=C/CCC1(C)CCc2cc(OCc3ccccc3)ccc2O1 (configuration not stated)
Solution: 38
